Assay: Half life in mouse liver microsomes incubated upto 45 mins in presence of NADPH by LC-MS/MS analysis
Assay type: ADME, Microsome
Please respond with criterion met when measured half-life is strictly beneath 2 h, and with criterion not met in all other cases.

Use these answered entries as a reference point.
Cl.Cn1cc(CN2CCC3(CCN(c4ncc(C(=O)NO)cn4)CC3)C2)c2cccnc21 criterion not met
Cl.Cn1cc(CN2CCC3(CCN(c4ncc(C(=O)NO)cn4)CC3)C2)c2ccccc21 criterion met

Threshold test, half-life < 2 h: `Cl.Cn1cc(CN2CCC3(CCN(c4ncc(C(=O)NO)cn4)CC3)C2)c2ccncc21`
criterion not met

Threshold test, half-life < 2 h: `Cl.Cn1cc(CN2CCC3(CCN(c4ncc(C(=O)NO)cn4)CC3)C2)c2ncccc21`
criterion not met

Threshold test, half-life < 2 h: `Cl.Cn1cc(CN2CCC3(CCN(c4ncc(C(=O)NO)cn4)CC3)C2)c2cnccc21`
criterion not met

Threshold test, half-life < 2 h: `Cl.O=C(NO)c1cnc(N2CCC3(CCN(Cc4c[nH]c5ccccc45)C3)CC2)nc1`
criterion met

----------
Assay: Selectivity index, ratio of IC50 for cytotoxicity against human HepG2 cells assessed to IC50 for antiplasmodial activity against synchronized ring stage Plasmodium falciparum 3D7 infected in human erythrocytes
Format: toxicity, cell-based
Conditions: read-out: Ratio IC50
measure.name: selectivity ratio
Just the number, please, no unit attached.

Example entries begin here.
O=C(NO)c1cnc(N2CCC3(CCN(Cc4ccc5ccc6cccc7ccc4c5c67)C3)CC2)nc1 64
Cl.Cn1cc(CN2CCC3(CCN(c4ncc(C(=O)NO)cn4)CC3)C2)c2ccccc21 26
O=C(NO)c1cnc(N2CCC3(CCN(CC4CCCC4)C3)CC2)nc1 46
O=C(NO)c1cnc(N2CCC3(CCN(Cc4cccc5ncccc45)C3)CC2)nc1 64
O=C(NO)c1cnc(N2CCC3(CCN(Cc4ccnc5ccccc45)C3)CC2)nc1 33

selectivity ratio in this record for `O=C(NO)c1cnc(N2CCC3(CCN(Cc4cccc5ccccc45)C3)CC2)nc1` : 21

selectivity ratio in this record for `O=C(NO)c1cnc(N2CCC3(CCN(Cc4c5ccccc5cc5ccccc45)C3)CC2)nc1` : 7

selectivity ratio in this record for `Cl.Cn1cc(CN2CCC3(CCN(c4ncc(C(=O)NO)cn4)CC3)C2)c2ccncc21` : 265

selectivity ratio in this record for `O=C(NO)c1cnc(N2CCC3(CCN(Cc4cncc5ccccc45)C3)CC2)nc1` : 9

selectivity ratio in this record for `O=C(NO)c1cnc(N2CCC3(CCN(Cc4cnc5ccccc5c4)C3)CC2)nc1` : 102

selectivity ratio in this record for `O=C(NO)c1cnc(N2CCC3(CCN(Cc4ccc5ccccc5n4)C3)CC2)nc1` : 47

selectivity ratio in this record for `Cl.Cn1cc(CN2CCC3(CCN(c4ncc(C(=O)NO)cn4)CC3)C2)c2cccnc21` : 93

selectivity ratio in this record for `O=C(NO)c1cnc(N2CCC3(CCN(Cc4cccnc4)C3)CC2)nc1` : 90

selectivity ratio in this record for `O=C(NO)c1cnc(N2CCC3(CCN(Cc4coc5ccccc45)C3)CC2)nc1` : 65

selectivity ratio in this record for `Cl.O=C(NO)c1cnc(N2CCC3(CCN(Cc4c[nH]c5ccccc45)C3)CC2)nc1` : 83

----------
Test: AUC (0 to infinity) in Balb/c mouse at 5 mg/kg, ip administered as single dose measured upto 24 hrs by LC-MS/MS analysis
Format: ADME, organism-based
Design: route intraperitoneal, dose 5 mg/kg, time <=24
Conditions: in vivo
measure.name: AUC(0-inf) (ng·h/mL)
Response body: numeric value in ng·h/mL, unit text excluded.

AUC(0-inf) in this record for `Cl.O=C(NO)c1cnc(N2CCC3(CCN(Cc4c[nH]c5ccccc45)C3)CC2)nc1` : 95.1

----------
Item-by-item account of pIC50
System: Plasmodium falciparum
Assay: Antiplasmodial activity against Plasmodium falciparum GB4 infected in human erythrocytes assessed as reduction in parasite growth incubated for 72 hrs by Giemsa staining based light microscopic method
Format: functional, organism-based
Settings: GB4, Erythrocyte
// pIC50: -log10(molar conc.)

pIC50 in this record for `Cl.Cn1cc(CN2CCC3(CCN(c4ncc(C(=O)NO)cn4)CC3)C2)c2ncccc21` : 8.43

pIC50 in this record for Cl.Cn1cc(CNCC2CCN(c3ncc(C(=O)NO)cn3)CC2)c2ccccc21 [QUISINOSTAT HYDROCHLORIDE] : 8.77

pIC50 in this record for `Cl.Cn1cc(CN2CCC3(CCN(c4ncc(C(=O)NO)cn4)CC3)C2)c2cccnc21` : 8.19

pIC50 in this record for `Cl.Cn1cc(CN2CCC3(CCN(c4ncc(C(=O)NO)cn4)CC3)C2)c2cnccc21` : 8.02

pIC50 in this record for `C[C@H]1[C@@H](O)O[C@@H]2O[C@@]3(C)CC[C@H]4[C@H](C)CC[C@@H]1[C@@]24OO3` : 8.49

pIC50 in this record for `Cl.O=C(NO)c1cnc(N2CCC3(CCN(Cc4c[nH]c5ccccc45)C3)CC2)nc1` : 8.41

pIC50 in this record for `Cl.Cn1cc(CN2CCC3(CCN(c4ncc(C(=O)NO)cn4)CC3)C2)c2ccncc21` : 8.36

pIC50 in this record for `Cl.Cn1cc(CN2CCC3(CCN(c4ncc(C(=O)NO)cn4)CC3)C2)c2ccccc21` : 8.43

----------
Test system: HepG2
Assay: Cytotoxicity against human HepG2 cells assessed as reduction in cell viability incubated for 72 hrs by cell titer glo assay
Format: cell-based
Details: HepG2, 72 h
measure.name: pIC50
// pIC50: -log10(molar conc.)

Example entries begin here.
O=C(NO)c1cnc(N2CCC3(CCN(Cc4ccc5ccccc5c4)C3)CC2)nc1 6.64
O=C(NO)c1cnc(N2CCC3(CCN(Cc4cnc5ccccc5c4)C3)CC2)nc1 6.25
O=C(NO)c1cnc(N2CCC3(CCN(Cc4cccc5ccncc45)C3)CC2)nc1 6.38
O=C(NO)c1cnc(N2CCC3(CCN(Cc4ccoc4)C3)CC2)nc1 5.98

pIC50 in this record for `O=C(NO)c1cnc(N2CCC3(CCN(Cc4coc5ccccc45)C3)CC2)nc1` : 6.05

----------
Assay: Oral bioavailability in Balb/c mouse at 10 mg/kg administered as single dose measured upto 24 hrs by LC-MS/MS analysis
Assay type: ADME, organism-based
Settings: in vivo
measure.name: bioavailability (%)
Response body: numeric value in %, unit text excluded.

bioavailability in this record for `Cl.O=C(NO)c1cnc(N2CCC3(CCN(Cc4c[nH]c5ccccc45)C3)CC2)nc1` : 0.5

----------
Assay: Tmax in Balb/c mouse at 5 mg/kg, ip administered as single dose measured upto 24 hrs by LC-MS/MS analysis
Type: ADME, organism-based
Conditions: in vivo
measure.name: Tmax (min)
Response body: numeric value in min, unit text excluded.

Tmax in this record for `Cl.O=C(NO)c1cnc(N2CCC3(CCN(Cc4c[nH]c5ccccc45)C3)CC2)nc1` : 15

----------
Assay: Tmax in Balb/c mouse at 10 mg/kg, po administered as single dose measured upto 24 hrs by LC-MS/MS analysis
Type: ADME, organism-based
Settings: in vivo
measure.name: Tmax (min)
Response body: numeric value in min, unit text excluded.

Tmax in this record for `Cl.O=C(NO)c1cnc(N2CCC3(CCN(Cc4c[nH]c5ccccc45)C3)CC2)nc1` : 15

----------
Biological target: Protein deacetylase HDAC6 (Homo sapiens)
Sequence (Q9UBN7 whole entry): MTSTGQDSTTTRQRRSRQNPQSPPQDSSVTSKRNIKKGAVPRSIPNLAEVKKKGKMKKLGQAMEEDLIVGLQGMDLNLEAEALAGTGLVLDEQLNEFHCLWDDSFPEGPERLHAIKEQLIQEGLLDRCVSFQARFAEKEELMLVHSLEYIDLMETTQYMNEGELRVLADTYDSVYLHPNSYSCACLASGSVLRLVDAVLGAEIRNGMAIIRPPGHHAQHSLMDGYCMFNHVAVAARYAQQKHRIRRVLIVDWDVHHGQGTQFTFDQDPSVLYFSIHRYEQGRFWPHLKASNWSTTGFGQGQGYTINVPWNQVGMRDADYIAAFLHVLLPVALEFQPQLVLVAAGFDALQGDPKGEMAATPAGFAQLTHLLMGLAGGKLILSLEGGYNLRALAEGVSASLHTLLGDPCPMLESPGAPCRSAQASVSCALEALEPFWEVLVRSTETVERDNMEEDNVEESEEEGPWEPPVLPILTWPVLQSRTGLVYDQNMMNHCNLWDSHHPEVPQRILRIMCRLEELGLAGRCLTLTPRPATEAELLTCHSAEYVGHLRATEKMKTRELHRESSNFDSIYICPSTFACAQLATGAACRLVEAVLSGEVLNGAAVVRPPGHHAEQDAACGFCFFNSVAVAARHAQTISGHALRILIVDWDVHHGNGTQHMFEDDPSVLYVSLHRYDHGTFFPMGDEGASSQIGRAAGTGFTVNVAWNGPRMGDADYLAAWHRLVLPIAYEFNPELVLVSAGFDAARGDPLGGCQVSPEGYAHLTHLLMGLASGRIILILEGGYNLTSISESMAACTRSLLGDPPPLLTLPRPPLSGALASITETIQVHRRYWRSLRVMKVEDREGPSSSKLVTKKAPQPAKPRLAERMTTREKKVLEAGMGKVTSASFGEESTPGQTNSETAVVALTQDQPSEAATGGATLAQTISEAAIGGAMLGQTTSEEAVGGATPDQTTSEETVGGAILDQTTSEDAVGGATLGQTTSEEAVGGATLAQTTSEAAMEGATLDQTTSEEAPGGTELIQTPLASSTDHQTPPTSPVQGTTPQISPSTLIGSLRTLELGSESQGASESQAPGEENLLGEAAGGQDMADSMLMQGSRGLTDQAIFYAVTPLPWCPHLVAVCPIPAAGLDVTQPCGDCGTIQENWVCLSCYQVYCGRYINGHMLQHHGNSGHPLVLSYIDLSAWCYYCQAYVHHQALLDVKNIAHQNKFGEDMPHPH
Test: Inhibition of human HDAC6 using Ac-peptide as substrate preincubated for 15 mins followed by substrate and trypsin addition and further incubated for 60 mins
measure.name: IC50 (nM)
Response body: numeric value in nM, unit text excluded.

IC50 in this record for `Cl.O=C(NO)c1cnc(N2CCC3(CCN(Cc4c[nH]c5ccccc45)C3)CC2)nc1` : 32

These entries and their values trace back to ChEMBL document CHEMBL4706683.
